# target: Gag-Pol polyprotein (Human immunodeficiency virus type 1 group M subtype B (isolate HXB2)) (UniProt P04585)
# assay-overview: RNase H inhibition, HIV 1 Gag Pol polyprotein, FRET biochemical assay, screening (AID 372)
# condition-summary: HIV-1 RT RNase H, FRET RNA/DNA substrate fluorescence; at 10 µM
In all, about 100,000 compounds went through this assay and about 770 (0.77%) were called active. No stated cut-off is given here; in the data, active means inhibition above about 50%; inactive means the rest. Shown is part of a subset that was picked to be rich in actives.
Classes used: y for active, n for inactive

1. O=C(c1nn2c(C(F)(F)F)cc(-c3ccc(F)cc3)nc2c1Cl)N1CCOCC1 ... n
2. COCCOC(=O)C1=C(C)NC(=S)NC1c1cc(OC)ccc1OC (stereo not given) ... n
3. Cc1ccccc1-n1c(O)c(C=NCc2ccccc2F)c(=O)[nH]c1=O ... n
4. COc1ccc(OC)c(C2NC(=S)NC(C)=C2C(=O)OCCOc2ccccc2)c1 (stereo not given) ... y
5. C[n+]1cccc(C(=O)NCCOC(=O)c2ccc(F)cc2)c1 ... n

###

# target: Gag-Pol polyprotein (Human immunodeficiency virus type 1 group M subtype B (isolate HXB2)) (UniProt P04585)
# assay-overview: RNase H inhibition, HIV 1 Gag Pol polyprotein, FRET biochemical assay, screening (AID 372)
# condition-summary: HIV-1 RT RNase H, FRET RNA/DNA substrate fluorescence; at 10 µM
The whole screen tested about 100,000 compounds, of which about 770 (0.77%) were called active. Cut-off read from the data, not from the text of the source: active = inhibition above about 50%; inactive = the rest. What follows is part of a selection rich in actives, with near analogues and random picks from the rest.
Labels: yes (active), no (inactive)

1. Cc1cc(OCC(=O)O)c2c(C)c(Cc3ccccc3)c(=O)oc2c1 ... no
2. Cc1ccc(NC(=O)/C=C/c2ccc3c(c2)OCO3)c(C)c1 ... no
3. Cc1cc(OC(=O)C2CC2)c2c(C)c(Cc3ccccc3)c(=O)oc2c1 ... yes
4. O=C(/C=C/c1ccc(F)cc1)Nc1cccc2cccnc12 ... no
5. O=C1OC(/C=C/c2ccccc2)=NC/1=C/c1ccc(-c2ccc3c(c2)C(=O)NC3=O)o1 ... no
6. COc1cc(C)cc2oc(=O)c(Cc3ccccc3)c(C)c12 ... no

###

molecules and their reported inhibition
# target: Gag-Pol polyprotein (Human immunodeficiency virus type 1 group M subtype B (isolate HXB2))
# assay-overview: RNase H inhibition, HIV 1 Gag Pol polyprotein, FRET biochemical assay, screening (AID 372)
# condition-summary: HIV-1 RT RNase H, FRET RNA/DNA substrate fluorescence; at 10 µM; hits give high values
Hit rate of the full screen: of about 100,000 compounds, about 770 (0.77%) were called active. For the sample, actives were picked, then their nearest neighbours and some compounds at random.
readout-kind: inhibition (%)

1. Cc1cc(/C=C2\C(=O)NC(=S)N(c3cccc(Cl)c3)C2=O)c(C)n1-c1ccc(Cl)cc1 ... 40
2. COc1cc(C(=O)N/N=C/c2ccc(OC)c(OC)c2C(=O)O)cc(OC)c1OC ... 0
3. Cc1ccc(NC(=O)CC2SC(=Nc3ccccc3)N(c3ccccc3)C2=O)cc1 (stereo not given) ... 5
4. COc1ccc(Cc2cnc(NC(=O)c3ccccc3Cl)s2)cc1 ... 11
5. O=C(CC1SC(=Nc2ccccc2)N(c2ccccc2)C1=O)Nc1ccc(F)cc1 (stereo not given) ... 14
6. Cc1cc(C)nc(NS(=O)(=O)c2ccc(NS(=O)(=O)c3ccc4c(c3)C(=O)c3ccccc3-4)cc2)n1 ... 15
7. CCOC(=O)c1c(NC(=O)Cc2cccs2)sc(C(=O)Nc2cc(C(F)(F)F)ccc2Cl)c1C ... 16
8. C=CCc1cccc(/C=N/c2nc3ccccc3n2CCC)c1O ... 17
9. COc1ccc2c(c1)C1C=CCC1C(C(=O)O)N2 (stereo not given) ... 25
10. O=C(N=Nc1c(O)n(CN2CCCCCC2)c2ccc(Br)cc12)c1cccnc1 ... 5
